// data source = patent US20050282755A1

# Tested on: Propionibacterium acnes ATCC 6919
# ASSAY_NOTES: MIC, agar dilution method NCCLS M11-A6, Brucella agar, anaerobic (Table 9, superscript c)
# Type: cell-based
# TEST_CONTEXT: ATCC 6919
Non-standard residues stand in square brackets, D forms with d. Residues, ends and D or L forms follow the SMILES beside them. *: point of attachment. Lauroyl = CCCCCCCCCCCC(=O)*; Octanoyl = CCCCCCCC(=O)*
PARAMETER_MEASURED: MIC P. acnes (c ug/mL)

molecule="CCCCCCCC(=O)N[C@H](CCCNC(=N)N)C(=O)N[C@H](CO)C(=O)N[C@H](CCCNC(=N)N)C(=O)N[C@H](Cc1c[nH]c2ccccc12)C(=O)N[C@H](CCCNC(=N)N)C(=O)N[C@H](CC(=O)O)C(=O)N[C@@H](C(=O)N[C@H](C)C(=O)N[C@H](CCCNC(=N)N)C(=O)N[C@H](CC(N)=O)C(=O)N[C@H](Cc1ccccc1)C(=O)N[C@H](CCSC)C(=O)N[C@H](CCCNC(=N)N)C(N)=O)C(C)C [Peptide 207, Octyl-rsrwrdvarnfmr-NH2] (Octanoyl-[dR][dS][dR][dW][dR][dD][dV][dA][dR][dN][dF][dM][dR]-NH2)" operator_symbol== reported_value=16
molecule="CCCCCCCCCCCC(=O)N[C@@H](CCCNC(=N)N)C(=O)N[C@@H](CO)C(=O)N[C@@H](CCCNC(=N)N)C(=O)N[C@@H](Cc1c[nH]c2ccccc12)C(=O)N[C@@H](CCCNC(=N)N)C(=O)N[C@@H](CC(=O)O)C(=O)N[C@H](C(=O)N[C@@H](C)C(=O)N[C@@H](CCCNC(=N)N)C(=O)N[C@@H](CC(N)=O)C(=O)N[C@@H](Cc1ccccc1)C(=O)N[C@@H](CCSC)C(N)=O)C(C)C [Peptide 98, Lauryl-RSRWRDVARNFM-NH2] (Lauroyl-RSRWRDVARNFM-NH2)" operator_symbol=> reported_value=64

###

# Tested on: Pseudomonas aeruginosa ATCC 27853
# ASSAY_NOTES: MIC, NCCLS M7-A6 broth microdilution (Table 9, no superscript)
# Format: cell-based
# TEST_CONTEXT: ATCC 27853
Non-standard residues stand in square brackets, D forms with d. Residues, ends and D or L forms follow the SMILES beside them. *: point of attachment. Lauroyl = CCCCCCCCCCCC(=O)*
Catalogue of MIC P. aeruginosa readings, one per entry.
PARAMETER_MEASURED: MIC P. aeruginosa (mg/L)

compound="CCCCCCCCCCCC(=O)N[C@H](CCCNC(=N)N)C(=O)N[C@H](CO)C(=O)N[C@H](CCCNC(=N)N)C(=O)N[C@H](CO)C(=O)N[C@H](CCCNC(=N)N)C(=O)N[C@H](CC(=O)O)C(=O)N[C@@H](C(=O)N[C@H](C)C(=O)N[C@H](CCCNC(=N)N)C(=O)N[C@H](CC(N)=O)C(=O)N[C@H](Cc1ccccc1)C(=O)N[C@H](CCSC)C(=O)N[C@H](CCCNC(=N)N)C(N)=O)C(C)C [Peptide 232, Lauryl-rsrsrdvarnfmr-NH2] (Lauroyl-[dR][dS][dR][dS][dR][dD][dV][dA][dR][dN][dF][dM][dR]-NH2)" operator_symbol=> reported_value=64
compound="CCCCCCCCCCCC(=O)N[C@H](CCCNC(=N)N)C(=O)N[C@H](CO)C(=O)N[C@H](CCCNC(=N)N)C(=O)N[C@H](Cc1c[nH]c2ccccc12)C(=O)N[C@H](C)C(=O)N[C@H](CC(=O)O)C(=O)N[C@@H](C(=O)N[C@H](C)C(=O)N[C@H](CCCNC(=N)N)C(=O)N[C@H](CC(N)=O)C(=O)N[C@H](Cc1ccccc1)C(=O)N[C@H](CCSC)C(=O)N[C@H](CCCNC(=N)N)C(N)=O)C(C)C [Peptide 240, Lauryl-rsrwadvarnfmr-NH2] (Lauroyl-[dR][dS][dR][dW][dA][dD][dV][dA][dR][dN][dF][dM][dR]-NH2)" operator_symbol== reported_value=16
